Values were extracted from paper PMC8510269.

- assay procedure: Reduction of nitroxides with ascorbate in the presence of glutathione (EPR kinetics)
- Format: physicochemical
- conditions: nitroxide 0.3–0.4 mM, ascorbate 100–300 mM, 50 mM phosphate buffer, pH 7.4, 25 °C, glutathione 2 mM
assay metric: kred × 10^4 (second-order rate constant for the initial rate of reduction with ascorbate) (M^−1 s^−1)

compound="CCC1(CC)CC(C(=O)O)C(CC)(CC)N1[O] (stereo not shown) [Nitroxide 1]" experimental_result=3.3
compound="CCC1(CC)CC(CNC(=O)CN2CCCC2)C(CC)(CC)N1[O] (stereo not shown) [Nitroxide 29]" experimental_result=2.5
compound="CCC1(CC)CC(CN2CCCCC2)C(CC)(CC)N1[O] (stereo not shown) [Nitroxide 30]" experimental_result=2.2
compound="CCC1(CC)CC(CN)C(CC)(CC)N1[O] (stereo not shown) [Nitroxide 22]" experimental_result=4.1
